# Test system: AR chromatin association at KLK3 ARE enhancer elements
# METHOD_NOTES: ChIP of AR at KLK3 enhancer in C4-2 cells
# RECORDED_CONDITIONS: compound 10 μM, R1881 1 nM or 10 nM, 2 h, FIG. 3C
MEASURED_QUANTITY: chromatin association of AR (ChIP signal)

COMPOUND | RESULT
CC1(C)C(=O)N(c2ccc(C#N)c(C(F)(F)F)c2)C(=S)N1c1ccc(C(=O)NCCCCCCC(=O)NO)c(F)c1 | basal ChIP signal
CNC(=O)c1ccc(N2C(=S)N(c3ccc(C#N)c(C(F)(F)F)c3)C(=O)C2(C)C)cc1F [Enz, Enzalutamide, reference compound] | basal ChIP signal
O=C(CCCCCCC(=O)Nc1ccccc1)NO [SAHA, suberanilohydroxamic acid, reference compound] | basal ChIP signal

###

Measured IC50 of individual entries
# SYSTEM_UNDER_TEST: human recombinant HDAC6 (Homo sapiens, UniProt Q9UBN7)
# Sequence (Q9UBN7 1-1215): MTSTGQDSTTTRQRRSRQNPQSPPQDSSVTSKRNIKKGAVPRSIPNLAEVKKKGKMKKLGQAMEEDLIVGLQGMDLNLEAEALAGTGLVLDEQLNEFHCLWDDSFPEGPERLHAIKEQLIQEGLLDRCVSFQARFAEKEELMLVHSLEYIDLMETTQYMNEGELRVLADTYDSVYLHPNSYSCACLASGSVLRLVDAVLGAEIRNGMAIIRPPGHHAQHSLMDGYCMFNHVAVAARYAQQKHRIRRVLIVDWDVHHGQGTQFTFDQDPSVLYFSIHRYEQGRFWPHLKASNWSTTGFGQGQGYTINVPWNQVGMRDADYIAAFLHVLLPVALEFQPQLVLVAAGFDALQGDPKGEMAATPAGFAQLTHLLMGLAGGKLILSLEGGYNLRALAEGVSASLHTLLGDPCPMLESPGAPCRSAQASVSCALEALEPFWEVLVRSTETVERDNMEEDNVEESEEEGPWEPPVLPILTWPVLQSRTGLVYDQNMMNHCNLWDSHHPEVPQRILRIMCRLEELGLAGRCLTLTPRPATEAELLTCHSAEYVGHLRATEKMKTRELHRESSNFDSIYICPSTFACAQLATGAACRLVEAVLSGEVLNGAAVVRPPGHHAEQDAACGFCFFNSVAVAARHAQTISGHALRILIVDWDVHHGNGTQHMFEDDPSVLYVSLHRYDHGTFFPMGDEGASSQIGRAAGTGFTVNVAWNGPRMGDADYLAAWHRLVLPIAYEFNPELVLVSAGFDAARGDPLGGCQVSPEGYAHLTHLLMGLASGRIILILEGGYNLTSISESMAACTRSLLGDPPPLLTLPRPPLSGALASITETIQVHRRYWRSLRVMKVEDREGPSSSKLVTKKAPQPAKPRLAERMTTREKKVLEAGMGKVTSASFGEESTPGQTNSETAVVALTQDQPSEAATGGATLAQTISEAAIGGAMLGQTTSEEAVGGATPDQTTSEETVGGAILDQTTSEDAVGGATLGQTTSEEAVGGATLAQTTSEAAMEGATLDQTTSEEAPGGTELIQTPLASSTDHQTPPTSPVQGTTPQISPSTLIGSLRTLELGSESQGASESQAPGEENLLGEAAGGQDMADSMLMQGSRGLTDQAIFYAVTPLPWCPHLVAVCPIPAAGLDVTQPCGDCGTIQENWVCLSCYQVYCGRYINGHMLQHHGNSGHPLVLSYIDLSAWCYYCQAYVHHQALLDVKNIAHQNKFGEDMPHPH
# METHOD_NOTES: HDAC6 fluorometric assay, recombinant enzyme
# RECORDED_CONDITIONS: cell-free; FIG. 2C; read-out: IC50, inhibition of recombinant HDAC6
Write down the numeric answer in µM and omit the unit.

SMILES_NOTATION | MEASURED_QUANTITY | READOUT_UNITS | MEASURED_NUMBER
CC1(C)C(=O)N(c2ccc(C#N)c(C(F)(F)F)c2)C(=S)N1c1ccc(/C=C/C(=O)NO)c(F)c1 | IC50 | µM | 6.93

Now look at this entry.
Q: Would you mind telling me what IC50 value was observed for `CC1(C)C(=O)N(c2ccc(C#N)c(C(F)(F)F)c2)C(=S)N1c1ccc(C(=O)NCCCCCCC(=O)NO)c(F)c1` ?
Ans: 2

Origin of measurements: patent US9963433B2
